system.under.test: Kappa-type opioid receptor (Cavia porcellus, UniProt P41144)
Sequence (P41144 whole entry): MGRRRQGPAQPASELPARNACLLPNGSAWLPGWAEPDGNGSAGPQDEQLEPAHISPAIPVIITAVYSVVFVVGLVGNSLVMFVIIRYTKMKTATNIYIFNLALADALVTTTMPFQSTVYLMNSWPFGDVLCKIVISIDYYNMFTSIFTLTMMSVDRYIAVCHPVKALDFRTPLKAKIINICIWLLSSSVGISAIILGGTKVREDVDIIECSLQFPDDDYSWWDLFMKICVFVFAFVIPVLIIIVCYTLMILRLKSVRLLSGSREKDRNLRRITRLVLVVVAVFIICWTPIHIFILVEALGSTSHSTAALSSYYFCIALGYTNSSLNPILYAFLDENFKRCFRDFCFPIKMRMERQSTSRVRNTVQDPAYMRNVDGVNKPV
Positions of bridges follow the written chain, without caps; N, C: chain ends. Non-standard residues stand in square brackets, D forms with d. Residues, ends and D or L forms follow the SMILES beside them. d1Nal = N[C@H](Cc1cccc2ccccc12)C(=O)O; d2Nal = N[C@H](Cc1ccc2ccccc2c1)C(=O)O; Dmt = Cc1cc(O)cc(C)c1C[C@H](N)C(=O)O
Note to self: use Criterion met only for Ki readings below 2 nM; a reading exactly at 2 nM still gets Criterion not met.

Solved entries:
>  <compound>
NC(=O)[C@@H]1CC(=O)NCCCC[C@@H](NC(=O)[C@@H](N)Cc2ccc(O)cc2)C(=O)N[C@@H](Cc2ccccc2)C(=O)N[C@@H](Cc2ccccc2)C(=O)N1 (H-Y[dK]FFD-NH2; lactam 2-5)

>  <classification>
Criterion met

$$$$
>  <compound>
Cc1cc(O)cc(C)c1C[C@H](N)C(=O)N[C@@H]1CCCCNC(=O)C[C@@H](C(N)=O)NC(=O)[C@H](Cc2ccccc2)NC(=O)[C@@H](Cc2ccc3ccccc3c2)NC1=O

>  <classification>
Criterion not met

$$$$
>  <compound>
Cc1cc(O)cc(C)c1C[C@H](N)C(=O)N[C@@H]1CCCCNC(=O)C[C@@H](C(N)=O)NC(=O)[C@H](Cc2ccccc2)NC(=O)[C@@H](Cc2cccc3ccccc23)NC1=O

>  <classification>
Criterion not met

$$$$
>  <compound>
Cc1cc(O)cc(C)c1C[C@H](N)C(=O)N[C@@H]1CCCCNC(=O)C[C@@H](C(N)=O)NC(=O)[C@@H](Cc2ccc3ccccc3c2)NC(=O)[C@H](Cc2ccccc2)NC1=O (H-[Dmt][dK]F[d2Nal]D-NH2; lactam 2-5)

>  <classification>
Criterion met

$$$$

Proceed to the following item.
API: query returns whether the compound falls strictly under 2 nM in Ki. Query: Cc1cc(O)cc(C)c1C[C@H](N)C(=O)N[C@@H]1CCCCNC(=O)C[C@@H](C(N)=O)NC(=O)[C@@H](Cc2cccc3ccccc23)NC(=O)[C@H](Cc2ccccc2)NC1=O (H-[Dmt][dK]F[d1Nal]D-NH2; lactam 2-5)
Criterion met
